# targetOrSystem: 5-hydroxytryptamine receptor 1B (Homo sapiens)
# Sequence (P28222 whole entry): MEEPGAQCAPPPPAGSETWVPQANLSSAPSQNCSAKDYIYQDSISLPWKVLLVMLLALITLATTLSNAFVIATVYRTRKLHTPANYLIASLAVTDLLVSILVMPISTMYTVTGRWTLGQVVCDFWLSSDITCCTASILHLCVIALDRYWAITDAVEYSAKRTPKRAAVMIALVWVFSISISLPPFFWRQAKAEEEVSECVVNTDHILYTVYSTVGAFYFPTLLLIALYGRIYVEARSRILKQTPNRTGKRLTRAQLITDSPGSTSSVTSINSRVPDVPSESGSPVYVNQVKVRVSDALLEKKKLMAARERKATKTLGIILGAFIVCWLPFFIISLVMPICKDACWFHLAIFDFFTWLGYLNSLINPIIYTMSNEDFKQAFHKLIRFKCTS
propertyName: pIC50
// pIC50: -log10(molar conc.)

Sample "N=C(Nc1ccc2c(c1)CCN2C1CCNCC1)c1cccs1" — what was its pIC50? 5.66

----------
# assaySummary: Cmax in Sprague-Dawley rat at 10 mg/kg, po
# Assay type: ADME, organism-based
# Set-up: dose 10 mg/kg, route oral
# conditionNotes: in vivo
propertyName: Cmax (ng/mL)
Your answer should be a plain number; it is taken to be in ng/mL.

Which Cmax reading was recorded for the compound "N=C(Nc1ccc2c(c1)CCN2C1CCNCC1)c1cccs1" ? 101

----------
# targetOrSystem: Muscarinic acetylcholine receptor M1 (Homo sapiens, UniProt P11229)
# Sequence (P11229 whole entry): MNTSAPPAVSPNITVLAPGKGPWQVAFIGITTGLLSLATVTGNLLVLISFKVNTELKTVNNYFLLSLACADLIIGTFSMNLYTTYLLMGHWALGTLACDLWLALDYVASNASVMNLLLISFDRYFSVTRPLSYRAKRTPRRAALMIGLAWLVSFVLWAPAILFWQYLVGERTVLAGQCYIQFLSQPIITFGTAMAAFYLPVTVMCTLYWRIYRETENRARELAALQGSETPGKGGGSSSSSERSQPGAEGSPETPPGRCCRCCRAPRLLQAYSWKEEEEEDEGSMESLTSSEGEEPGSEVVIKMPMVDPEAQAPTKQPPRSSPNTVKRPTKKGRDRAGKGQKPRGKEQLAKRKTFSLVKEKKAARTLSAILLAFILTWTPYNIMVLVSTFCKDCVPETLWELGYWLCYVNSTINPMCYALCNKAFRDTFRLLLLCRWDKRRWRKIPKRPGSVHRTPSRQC
propertyName: IC50 (µM)
Report the value in µM with no unit label.

For "N=C(Nc1ccc2c(c1)CCN2C1CCNCC1)c1cccs1" , what is its reported IC50? 8.6

----------
# targetOrSystem: Voltage-gated inwardly rectifying potassium channel KCNH2 (Homo sapiens, UniProt Q12809)
# assaySummary: Displacement of [3H]astemizole from human recombinant ERG expressed in HEK293 cells
# Format: cell-based
propertyName: IC50 (µM)
Write the number in µM without appending the unit.

Endpoint output: IC50 of "N=C(Nc1ccc2c(c1)CCN2C1CCNCC1)c1cccs1" . Value? 160

----------
# assaySummary: Oral bioavailability in Sprague-Dawley rat at 10 mg/kg
# Type: ADME, organism-based
# conditionNotes: in vivo
propertyName: bioavailability (%)
Form entry: value (%) — number only.

Look up bioavailability: "N=C(Nc1ccc2c(c1)CCN2C1CCNCC1)c1cccs1" 91

----------
# pIC50 listing for each entry below
# targetOrSystem: Nitric oxide synthase 1 (Homo sapiens)
# Sequence (P29475 whole entry): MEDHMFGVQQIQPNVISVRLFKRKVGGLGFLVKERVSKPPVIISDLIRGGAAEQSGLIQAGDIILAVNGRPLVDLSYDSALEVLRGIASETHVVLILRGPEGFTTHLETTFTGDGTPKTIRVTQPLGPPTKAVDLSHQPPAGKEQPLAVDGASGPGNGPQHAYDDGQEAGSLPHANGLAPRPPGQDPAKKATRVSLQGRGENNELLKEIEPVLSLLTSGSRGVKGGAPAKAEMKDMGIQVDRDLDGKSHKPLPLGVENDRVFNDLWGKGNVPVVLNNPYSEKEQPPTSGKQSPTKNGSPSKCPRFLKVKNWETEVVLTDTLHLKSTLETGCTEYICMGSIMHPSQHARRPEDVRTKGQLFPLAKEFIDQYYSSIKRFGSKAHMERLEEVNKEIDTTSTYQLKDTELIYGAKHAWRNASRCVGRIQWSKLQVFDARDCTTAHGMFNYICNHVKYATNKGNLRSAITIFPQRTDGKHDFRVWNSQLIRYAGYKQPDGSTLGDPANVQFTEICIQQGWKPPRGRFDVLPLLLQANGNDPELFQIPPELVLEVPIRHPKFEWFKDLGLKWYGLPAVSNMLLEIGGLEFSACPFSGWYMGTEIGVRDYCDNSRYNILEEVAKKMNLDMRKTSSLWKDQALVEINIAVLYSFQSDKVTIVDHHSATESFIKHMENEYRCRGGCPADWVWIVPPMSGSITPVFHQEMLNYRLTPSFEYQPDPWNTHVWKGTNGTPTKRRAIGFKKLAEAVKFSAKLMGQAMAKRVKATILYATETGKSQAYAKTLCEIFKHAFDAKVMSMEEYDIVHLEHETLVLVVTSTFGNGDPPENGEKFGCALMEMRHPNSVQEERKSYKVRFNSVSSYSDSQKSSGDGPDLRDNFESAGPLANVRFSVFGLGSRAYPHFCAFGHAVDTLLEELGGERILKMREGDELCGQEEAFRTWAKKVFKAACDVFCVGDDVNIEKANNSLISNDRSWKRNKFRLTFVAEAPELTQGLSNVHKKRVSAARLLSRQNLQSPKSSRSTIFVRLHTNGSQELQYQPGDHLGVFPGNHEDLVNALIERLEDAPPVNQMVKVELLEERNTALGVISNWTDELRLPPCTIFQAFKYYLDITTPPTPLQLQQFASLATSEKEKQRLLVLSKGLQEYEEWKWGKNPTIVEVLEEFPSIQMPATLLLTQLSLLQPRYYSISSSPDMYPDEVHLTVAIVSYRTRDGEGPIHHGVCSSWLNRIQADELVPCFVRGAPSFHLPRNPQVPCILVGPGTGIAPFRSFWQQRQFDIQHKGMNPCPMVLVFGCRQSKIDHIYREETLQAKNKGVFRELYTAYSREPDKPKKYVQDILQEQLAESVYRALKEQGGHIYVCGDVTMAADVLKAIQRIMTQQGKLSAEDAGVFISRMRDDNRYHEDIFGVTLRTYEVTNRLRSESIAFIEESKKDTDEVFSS
# assaySummary: Inhibition of recombinant human nNOS expressed in baculovirus-infected Sf9 cells assessed as conversion of [3H]-larginine to [3H]-L-citrulline preincubated for 15 mins measured after 45 mins by liquid scintillation counting
Units for pIC50: none; it is -log10 of a concentration expressed in mol/L.

INSERT INTO assay_data (compound, targetorsystem, valuereported) VALUES
  ('CNC1CCC(N2CCc3cc(NC(=N)c4cccs4)ccc32)CC1 (cis isomer)', 'Nitric oxide synthase 1 (Homo sapiens)', 6.70);

# lookup: pIC50 of "N=C(Nc1ccc2c(c1)CCN2C1CCNCC1)c1cccs1" 6.96

Dear colleague, I am looking for the recorded pIC50 of the following compound: CC1CC(N2CCc3cc(NC(=N)c4cccs4)ccc32)CCN1 (cis isomer) 6.16

# get_value(readout='pIC50', item= CC1CC(N2CCc3cc(NC(=N)c4cccs4)ccc32)CCN1 (single isomer, unassigned; (+)) ) 6.04

Dear colleague, I am looking for the recorded pIC50 of the following compound: "CN(C)CCN1CCc2cc(NC(=N)c3cccs3)ccc21" 7.40

----------
# targetOrSystem: Nitric oxide synthase, inducible (Homo sapiens)
# Sequence (P35228 whole entry, looked up): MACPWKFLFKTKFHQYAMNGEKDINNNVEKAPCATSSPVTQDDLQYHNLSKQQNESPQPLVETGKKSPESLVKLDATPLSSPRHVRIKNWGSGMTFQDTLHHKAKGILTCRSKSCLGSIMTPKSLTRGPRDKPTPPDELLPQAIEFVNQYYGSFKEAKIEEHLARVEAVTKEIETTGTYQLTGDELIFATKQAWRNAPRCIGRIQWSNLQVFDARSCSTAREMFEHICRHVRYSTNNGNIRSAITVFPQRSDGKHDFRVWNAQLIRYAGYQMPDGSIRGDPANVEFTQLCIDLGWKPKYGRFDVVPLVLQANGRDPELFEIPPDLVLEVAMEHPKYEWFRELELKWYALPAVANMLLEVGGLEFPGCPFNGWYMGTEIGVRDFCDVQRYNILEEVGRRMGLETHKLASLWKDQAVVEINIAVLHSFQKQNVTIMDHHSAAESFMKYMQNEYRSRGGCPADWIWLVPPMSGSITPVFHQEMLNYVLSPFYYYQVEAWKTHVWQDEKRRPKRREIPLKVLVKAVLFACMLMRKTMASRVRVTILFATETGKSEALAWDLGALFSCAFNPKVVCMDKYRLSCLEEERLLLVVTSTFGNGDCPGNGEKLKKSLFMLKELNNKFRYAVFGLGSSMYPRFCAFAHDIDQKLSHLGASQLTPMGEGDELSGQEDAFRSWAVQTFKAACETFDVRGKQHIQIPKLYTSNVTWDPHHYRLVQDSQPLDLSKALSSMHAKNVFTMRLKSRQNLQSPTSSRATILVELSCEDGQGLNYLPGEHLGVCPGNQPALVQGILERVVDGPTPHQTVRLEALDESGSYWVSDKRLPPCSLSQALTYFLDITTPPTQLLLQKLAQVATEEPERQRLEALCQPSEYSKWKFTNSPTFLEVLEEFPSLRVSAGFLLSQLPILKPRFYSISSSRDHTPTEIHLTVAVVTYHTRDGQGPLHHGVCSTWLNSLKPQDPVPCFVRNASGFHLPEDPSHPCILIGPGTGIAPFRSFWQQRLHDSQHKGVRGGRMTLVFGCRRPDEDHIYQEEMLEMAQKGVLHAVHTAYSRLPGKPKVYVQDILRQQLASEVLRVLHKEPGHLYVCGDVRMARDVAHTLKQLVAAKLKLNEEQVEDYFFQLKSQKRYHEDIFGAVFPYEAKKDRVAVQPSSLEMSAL
# assaySummary: Inhibition of recombinant human iNOS expressed in baculovirus-infected Sf9 cells assessed as conversion of [3H]-larginine to [3H]-L-citrulline preincubated for 15 mins measured after 45 mins by liquid scintillation counting
Rule: IC50 below 2000 nM gives TRUE. Equal to or above 2000 nM gives FALSE.

Input CC1CC(N2CCc3cc(NC(=N)c4cccs4)ccc32)CCN1 (cis isomer) ; condition: IC50 strictly below 2000 nM. Does it hold? TRUE

Dear reviewer, please state whether CNC1CCC(N2CCc3cc(NC(=N)c4cccs4)ccc32)CC1 (trans isomer) has IC50 strictly beneath 2000 nM. FALSE

----------
# assaySummary: Volume of distribution at steady state in Sprague-Dawley rat at 3 mg/kg, iv
# Assay type: ADME, organism-based
# Parameters: dose 3 mg/kg, route intravenous
# conditionNotes: in vivo, read-out: Vdss
propertyName: Vd (L/kg)
Express your answer in L/kg, writing the number without its unit.

Which Vd value belongs to "N=C(Nc1ccc2c(c1)CCN2C1CCNCC1)c1cccs1" ? 330

----------
# targetOrSystem: UniProtKB Q12809
# assaySummary: Inhibition of human recombinant ERG expressed in HEK293 cells after 5 to 10 mins by conventional whole-cell patch clamp assay
# Type: cell-based
pIC50: −log10 of the molar value.
propertyName: pIC50

For "N=C(Nc1ccc2c(c1)CCN2C1CCNCC1)c1cccs1" , what is its reported pIC50? < 4.00

----------
# targetOrSystem: Nitric oxide synthase 3 (Homo sapiens, UniProt P29474)
# Sequence (P29474 whole entry, looked up): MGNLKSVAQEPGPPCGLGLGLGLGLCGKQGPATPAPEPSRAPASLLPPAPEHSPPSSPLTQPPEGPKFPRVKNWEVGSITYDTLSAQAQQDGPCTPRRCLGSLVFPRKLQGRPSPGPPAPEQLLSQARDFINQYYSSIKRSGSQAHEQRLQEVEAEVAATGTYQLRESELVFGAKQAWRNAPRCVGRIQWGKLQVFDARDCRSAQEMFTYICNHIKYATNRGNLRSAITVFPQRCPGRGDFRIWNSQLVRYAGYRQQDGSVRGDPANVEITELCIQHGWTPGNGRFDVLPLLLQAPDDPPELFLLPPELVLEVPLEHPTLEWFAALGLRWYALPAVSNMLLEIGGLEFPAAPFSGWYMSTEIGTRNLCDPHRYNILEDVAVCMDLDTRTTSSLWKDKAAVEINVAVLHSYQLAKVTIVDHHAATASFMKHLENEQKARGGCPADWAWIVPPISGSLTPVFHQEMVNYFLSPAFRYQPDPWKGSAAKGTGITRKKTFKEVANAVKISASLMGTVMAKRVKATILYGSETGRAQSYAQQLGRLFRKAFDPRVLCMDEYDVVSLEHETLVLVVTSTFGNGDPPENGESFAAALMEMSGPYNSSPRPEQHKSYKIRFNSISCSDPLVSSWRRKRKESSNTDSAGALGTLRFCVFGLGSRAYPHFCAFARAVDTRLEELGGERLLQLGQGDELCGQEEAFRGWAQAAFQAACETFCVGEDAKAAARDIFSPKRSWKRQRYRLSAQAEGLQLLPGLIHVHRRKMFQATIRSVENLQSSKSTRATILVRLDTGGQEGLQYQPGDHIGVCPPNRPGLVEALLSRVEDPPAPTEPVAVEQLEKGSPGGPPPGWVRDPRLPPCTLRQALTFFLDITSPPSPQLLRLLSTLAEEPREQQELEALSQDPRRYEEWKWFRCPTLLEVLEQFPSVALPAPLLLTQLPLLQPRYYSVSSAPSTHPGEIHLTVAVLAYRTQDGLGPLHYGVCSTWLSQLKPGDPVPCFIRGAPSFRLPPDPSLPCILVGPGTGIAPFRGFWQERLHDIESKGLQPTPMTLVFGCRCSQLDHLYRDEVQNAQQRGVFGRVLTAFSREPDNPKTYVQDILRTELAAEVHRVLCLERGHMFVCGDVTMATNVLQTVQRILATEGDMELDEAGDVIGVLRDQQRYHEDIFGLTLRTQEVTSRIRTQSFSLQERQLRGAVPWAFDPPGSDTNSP
# assaySummary: Inhibition of recombinant human eNOS expressed in baculovirus-infected Sf9 cells assessed as conversion of [3H]-larginine to [3H]-L-citrulline preincubated for 15 mins measured after 45 mins by liquid scintillation counting
hey, just use satisfied if measured IC50 is less than 50 µM, otherwise not satisfied

Given the entry "N=C(Nc1ccc2c(c1)CCN2C1CCN(CCO)CC1)c1cccs1" , would its reported IC50 be below 50 µM? satisfied

Could you please tell me whether IC50 recorded for CC1CC(N2CCc3cc(NC(=N)c4cccs4)ccc32)CCN1 (single isomer, unassigned; (+)) is less than 50 µM? not satisfied

In the record for "N=C(Nc1ccc2c(c1)CCN2CCN1CCCC1)c1cccs1" , is IC50 less than 50 µM? satisfied

Please let me know if CC1CC(N2CCc3cc(NC(=N)c4cccs4)ccc32)CCN1 (cis isomer) shows IC50 below 50 µM. not satisfied

Item "N=C(Nc1ccc2c(c1)CCN2C1CCNCC1)c1cccs1" : IC50 beneath 50 µM, strictly? satisfied

Quick check: IC50 of "CN(C)CCN1CCc2cc(NC(=N)c3cccs3)ccc21" under 50 µM? satisfied

In the record for "N=C(Nc1ccc2c(c1)CCN2C(=O)CN1CCCC1)c1cccs1" , is IC50 less than 50 µM? satisfied

Please indicate whether the reported IC50 of CC1CC(N2CCc3cc(NC(=N)c4cccs4)ccc32)CCN1 (stereo in doubt) is strictly below 50 µM. not satisfied

----------
# assaySummary: AUC in Sprague-Dawley rat at 3 mg/kg, iv
# Assay type: ADME, organism-based
# Parameters: dose 3 mg/kg, route intravenous
# conditionNotes: plasma
propertyName: AUC
Reply with the number and its unit after it.

What value of measured AUC is listed for "N=C(Nc1ccc2c(c1)CCN2C1CCNCC1)c1cccs1" ? 0.0952 µg·h/mL

----------
# assaySummary: Tmax in Sprague-Dawley rat at 10 mg/kg, po
# Assay type: ADME, organism-based
# Set-up: dose 10 mg/kg, route oral
# conditionNotes: in vivo
propertyName: Tmax (h)
Please state the figure in h; there is no need to write the unit.

I'd like to know its Tmax. The compound in question is "N=C(Nc1ccc2c(c1)CCN2C1CCNCC1)c1cccs1" 2

----------
# targetOrSystem: UniProtKB P29475
# assaySummary: Inhibition of recombinant human nNOS expressed in baculovirus-infected Sf9 cells assessed as conversion of [3H]-larginine to [3H]-L-citrulline preincubated for 15 mins measured after 45 mins by liquid scintillation counting
propertyName: pIC50
Quick note: pIC50 values are minus log10 of concentrations in mol/L.

// solved cases for pIC50 follow
INSERT INTO assay_data (molecule, targetorsystem, propertyname, valuereported) VALUES
  ('CC1CC(N2CCc3cc(NC(=N)c4cccs4)ccc32)CCN1 (trans isomer)', 'UniProtKB P29475', 'pIC50', 6.43),
  ('N=C(Nc1ccc2c(c1)CCN2C(=O)CN1CCCC1)c1cccs1', 'UniProtKB P29475', 'pIC50', 6.21),
  ('CN1CCC(N2CCc3cc(NC(=N)c4cccs4)ccc32)CC1', 'UniProtKB P29475', 'pIC50', 6.70),
  ('N=C(Nc1ccc2c(c1)CCN2C1CCCNC1)c1cccs1 (racemic)', 'UniProtKB P29475', 'pIC50', 6.48),
  ('CC1CC(N2CCc3cc(NC(=N)c4cccs4)ccc32)CCN1 (stereo in doubt)', 'UniProtKB P29475', 'pIC50', 6.15),
  ('N=C(Nc1ccc2c(c1)CCN2CCNCCO)c1cccs1', 'UniProtKB P29475', 'pIC50', 6.46);

What does the record list as pIC50 for "N=C(Nc1ccc2c(c1)CCN2CCN1CCCC1)c1cccs1" ? 6.92

Suppose we examine the molecule "N=C(Nc1ccc2c(c1)CCN2C1CCN(CCO)CC1)c1cccs1" ; what pIC50 value has been reported? 6.80

Recorded pIC50 for CNC1CCC(N2CCc3cc(NC(=N)c4cccs4)ccc32)CC1 (trans isomer) , please? 7.00
